Where do these numbers come from? They come from ChEMBL document CHEMBL3137440.

Experiment: DNDI: Protein binding in mouse plasma
Assay type: ADME, cell-free
Settings: read-out: % bound
property.name: fraction unbound

Lookup: Look up fraction unbound of `FC(F)(F)c1ccc(N(c2cccnc2)C2CCN(c3ccc(C(F)(F)F)cn3)CC2)cc1` and report it.
Found: < 0.001

----------
Test: in vitro
Details: human, microsomes
Assign log10 half-life to each entry below.
A difference of one corresponds to tenfold half-life; all values are log10 with half-life in min.

Lookup: Look up log10 half-life of `Cc1ncsc1C(=O)N1CCC(N(c2ccc(C(F)(F)F)cc2)c2cccnc2)CC1` and report it.
Found: 1.22

Lookup: Look up log10 half-life of `O=C(C1CC1)N1CCC(N(c2ccc(Cl)cc2)c2cccnc2)CC1` and report it.
Found: 1.38

Lookup: Look up log10 half-life of `CS(=O)(=O)c1ccc(N2CCC(N(c3ccc(C#N)cc3)c3cccnc3)CC2)cc1` and report it.
Found: 2.05

Lookup: Look up log10 half-life of `FC(F)(F)c1ccc(N(c2cccnc2)C2CCN(c3ncccn3)CC2)cc1` and report it.
Found: 0.94

Lookup: Look up log10 half-life of `CN(C)S(=O)(=O)c1cccc(N2CCC(N(c3ccc(C#N)cc3)c3cccnc3)CC2)c1` and report it.
Found: 0.53

Lookup: Look up log10 half-life of `FC(F)(F)c1ccc(N(c2cccnc2)C2CCN(c3ccc(Cl)cc3)CC2)cc1` and report it.
Found: 1.71

Lookup: Look up log10 half-life of `O=C(c1ccccc1C(F)(F)F)N1CCC(N(c2ccc(C(F)(F)F)cc2)c2cccnc2)CC1` and report it.
Found: 0.85

Lookup: Look up log10 half-life of `N#Cc1cc(C(F)(F)F)ccc1N1CCC(N(c2ccc(C(F)(F)F)cc2)c2cccnc2)CC1` and report it.
Found: 1.52

Lookup: Look up log10 half-life of `N#Cc1ccc(N(c2cccnc2)C2CCN(c3ccc(C(F)(F)F)cc3)CC2)cc1` and report it.
Found: 1.64

----------
Assay: DNDI: Cytotoxicity against L-6 rat myoblasts from skeletal musclE
Settings: L6 rat skeletal muscle myoblasts, IC50
property.name: IC50 (µM)
// return numeric value only (unit: µM, not printed)

Lookup: Look up IC50 of `N#Cc1cc(C(F)(F)F)ccc1N1CCC(N(c2ccc(Cl)cc2)c2cccnc2)CC1` and report it.
Found: 17.7

Lookup: Look up IC50 of `COc1cccc(CN2CCC(N(c3ccc(C(F)(F)F)cc3)c3cccnc3)CC2)c1` and report it.
Found: 36.8

----------
Experiment: DNDI: Metabolism
Assay type: ADME, Microsome
Details: rat, microsomes
property.name: microsomal CLint (µL/min/mg)
// return numeric value only (unit: µL/min/mg, not printed)

Lookup: Look up microsomal CLint of `O=C(C1CC1)N1CCC(N(c2ccc(Cl)cc2)c2cccnc2)CC1` and report it.
Found: 171

Lookup: Look up microsomal CLint of `CC(C)(C)CC(=O)N1CCC(N(c2ccc(Cl)cc2)c2cccnc2)CC1` and report it.
Found: 357

Lookup: Look up microsomal CLint of `O=C(c1ccccc1)N1CCC(N(c2ccc(Cl)cc2)c2cccnc2)CC1` and report it.
Found: 231

Lookup: Look up microsomal CLint of `CC(C)(C)C(=O)N1CCC(N(c2ccc(C(F)(F)F)cc2)c2cccnc2)CC1` and report it.
Found: 131

Lookup: Look up microsomal CLint of `Cc1ncsc1C(=O)N1CCC(N(c2ccc(C(F)(F)F)cc2)c2cccnc2)CC1` and report it.
Found: 61.8

Lookup: Look up microsomal CLint of `Cc1noc(C)c1C(=O)N1CCC(N(c2ccc(C(F)(F)F)cc2)c2cccnc2)CC1` and report it.
Found: 79.3

Lookup: Look up microsomal CLint of `CS(=O)(=O)N1CCC(N(c2ccc(Cl)cc2)c2cccnc2)CC1` and report it.
Found: 62.6

Lookup: Look up microsomal CLint of `O=C(c1ccc(F)cc1)N1CCC(N(c2ccc(C(F)(F)F)cc2)c2cccnc2)CC1` and report it.
Found: 105

Lookup: Look up microsomal CLint of `FC(F)(F)c1ccc(N(c2cccnc2)C2CCN(c3ccc(C(F)(F)F)cn3)CC2)cc1` and report it.
Found: 15

Lookup: Look up microsomal CLint of `O=C(c1ccccc1C(F)(F)F)N1CCC(N(c2ccc(C(F)(F)F)cc2)c2cccnc2)CC1` and report it.
Found: 72.1

----------
System: Trypanosoma cruzi
Test: DNDI: Chagas in Vitro
Assay type: functional, Tulahuen C4 (LacZ)
Details: Trypanosoma cruzi, Tulahuen C4 (LacZ)
Mark y only when IC90 stays strictly below 30 nM. Values equal to the cut-off are n.

Lookup: For FC(F)(F)c1ccc(N(c2cccnc2)C2CCN(C(c3ccccc3)C(F)(F)F)CC2)cc1 (stereo not given) , is the recorded IC90 below the cut-off of 30 nM?
Found: n

Lookup: For `CC(C)(F)CN1CCC(N(c2ccc(C(F)(F)F)cc2)c2cccnc2)CC1` , is the recorded IC90 below the cut-off of 30 nM?
Found: y

Lookup: For `CC(C)(C)CC(=O)N1CCC(N(c2ccc(Cl)cc2)c2cccnc2)CC1` , is the recorded IC90 below the cut-off of 30 nM?
Found: y

Lookup: For `CS(=O)(=O)c1ccc(N2CCC(N(c3ccc(C#N)cc3)c3cccnc3)CC2)cc1` , is the recorded IC90 below the cut-off of 30 nM?
Found: y

Lookup: For `FC(F)(F)c1ccc(N(c2cccnc2)C2CCN(c3ncccn3)CC2)cc1` , is the recorded IC90 below the cut-off of 30 nM?
Found: y

Lookup: For `Cc1ccc(N2CCC(N(c3ccc(C(F)(F)F)cc3)c3cccnc3)CC2)cn1` , is the recorded IC90 below the cut-off of 30 nM?
Found: n

Lookup: For `CC(C)(C)N1CCC(N(c2ccc(C(F)(F)F)cc2)c2cccnc2)CC1` , is the recorded IC90 below the cut-off of 30 nM?
Found: n

Lookup: For `Cc1ncsc1C(=O)N1CCC(N(c2ccc(C(F)(F)F)cc2)c2cccnc2)CC1` , is the recorded IC90 below the cut-off of 30 nM?
Found: y

Lookup: For `CC(C)(C)OC(=O)N1CCC(N(c2ccc(C(F)(F)F)cc2)c2cccnc2)CC1` , is the recorded IC90 below the cut-off of 30 nM?
Found: y

Lookup: For `FC(F)(F)c1ccc(CN2CCC(N(c3ccc(C(F)(F)F)cc3)c3cccnc3)CC2)cc1` , is the recorded IC90 below the cut-off of 30 nM?
Found: n

Lookup: For `FC(F)(F)c1ccc(N(c2cccnc2)C2CCN(c3ccc(Cl)cc3)CC2)cc1` , is the recorded IC90 below the cut-off of 30 nM?
Found: y

Lookup: For `Cc1cncc(N2CCC(N(c3ccc(C(F)(F)F)cc3)c3cccnc3)CC2)c1` , is the recorded IC90 below the cut-off of 30 nM?
Found: y

Lookup: For `FC(F)(F)c1ccc(N(c2cccnc2)C2CCN(c3nccs3)CC2)cc1` , is the recorded IC90 below the cut-off of 30 nM?
Found: n

Lookup: For CCC(C(C)=O)N1CCC(N(c2ccc(C(F)(F)F)cc2)c2cccnc2)CC1 (stereo not given) , is the recorded IC90 below the cut-off of 30 nM?
Found: y

Lookup: For `CN(C)S(=O)(=O)c1cc(C(F)(F)F)ccc1N1CCC(N(c2ccc(C#N)cc2)c2cccnc2)CC1` , is the recorded IC90 below the cut-off of 30 nM?
Found: y

Lookup: For CC(=O)C(C)N1CCC(N(c2ccc(C(F)(F)F)cc2)c2cccnc2)CC1 (stereo not given) , is the recorded IC90 below the cut-off of 30 nM?
Found: n

Lookup: For `FC(F)(F)c1ccc(N(c2cccnc2)C2CCN(c3ccc(Cl)cn3)CC2)cc1` , is the recorded IC90 below the cut-off of 30 nM?
Found: n

Lookup: For `Fc1ccccc1CN1CCC(N(c2ccc(C(F)(F)F)cc2)c2cccnc2)CC1` , is the recorded IC90 below the cut-off of 30 nM?
Found: n

Lookup: For `O=C(C1CC1)N1CCC(N(c2ccc(Cl)cc2)c2cccnc2)CC1` , is the recorded IC90 below the cut-off of 30 nM?
Found: y

Lookup: For `FC(F)(F)c1ccc(N(c2cccnc2)C2CCN(c3ccccc3C(F)(F)F)CC2)cc1` , is the recorded IC90 below the cut-off of 30 nM?
Found: n

Lookup: For `FC(F)(F)c1ccc(N(c2cccnc2)C2CCN(c3cccc(C(F)(F)F)c3)CC2)cc1` , is the recorded IC90 below the cut-off of 30 nM?
Found: n

Lookup: For `N#Cc1ccc(N(c2cccnc2)C2CCN(c3ccc(F)c(F)c3)CC2)cc1` , is the recorded IC90 below the cut-off of 30 nM?
Found: y

Lookup: For `FC(F)(F)c1ccc(N2CCC(N(c3ccc(C(F)(F)F)cc3)c3cccnc3)CC2)cc1` , is the recorded IC90 below the cut-off of 30 nM?
Found: n

Lookup: For `FC(F)(F)c1ccc(N(c2cccnc2)C2CCN(c3ccc(C(F)(F)F)nc3)CC2)cc1` , is the recorded IC90 below the cut-off of 30 nM?
Found: n

Lookup: For `N#Cc1cc(C(F)(F)F)ccc1N1CCC(N(c2ccc(Cl)cc2)c2cccnc2)CC1` , is the recorded IC90 below the cut-off of 30 nM?
Found: y

Lookup: For `O=C(c1ccccc1)N1CCC(N(c2ccc(Cl)cc2)c2cccnc2)CC1` , is the recorded IC90 below the cut-off of 30 nM?
Found: n

Lookup: For `COc1ccc(CN2CCC(N(c3ccc(C(F)(F)F)cc3)c3cccnc3)CC2)cc1` , is the recorded IC90 below the cut-off of 30 nM?
Found: n

Lookup: For `O=C(c1ccccc1C(F)(F)F)N1CCC(N(c2ccc(C(F)(F)F)cc2)c2cccnc2)CC1` , is the recorded IC90 below the cut-off of 30 nM?
Found: y

Lookup: For `N#Cc1ccc(N(c2cccnc2)C2CCN(c3ccc(C(F)(F)F)cc3)CC2)cc1` , is the recorded IC90 below the cut-off of 30 nM?
Found: y

Lookup: For `CN(C)S(=O)(=O)c1ccccc1N1CCC(N(c2ccc(C#N)cc2)c2cccnc2)CC1` , is the recorded IC90 below the cut-off of 30 nM?
Found: y

Lookup: For `COc1cccc(CN2CCC(N(c3ccc(C(F)(F)F)cc3)c3cccnc3)CC2)c1` , is the recorded IC90 below the cut-off of 30 nM?
Found: n

Lookup: For `Cn1nc(C2CC2)cc1N1CCC(N(c2ccc(C(F)(F)F)cc2)c2cccnc2)CC1` , is the recorded IC90 below the cut-off of 30 nM?
Found: y

Lookup: For `O=C(c1ccc(F)cc1)N1CCC(N(c2ccc(C(F)(F)F)cc2)c2cccnc2)CC1` , is the recorded IC90 below the cut-off of 30 nM?
Found: y

Lookup: For `CC(C)(C)OC(=O)N1CCC(N(c2ccc(Cl)cc2)c2cccnc2)CC1` , is the recorded IC90 below the cut-off of 30 nM?
Found: y

Lookup: For `FC(F)(F)c1ccc(N(c2cccnc2)C2CCN(Cc3cccc(C(F)(F)F)c3)CC2)cc1` , is the recorded IC90 below the cut-off of 30 nM?
Found: n

Lookup: For `FC(F)(F)c1ccc(N(c2cccnc2)C2CCN(c3ccccn3)CC2)cc1` , is the recorded IC90 below the cut-off of 30 nM?
Found: n

Lookup: For `CC(C)(O)CN1CCC(N(c2ccc(C#N)cc2)c2cccnc2)CC1` , is the recorded IC90 below the cut-off of 30 nM?
Found: n

Lookup: For `FC(F)(F)c1ccc(N2CCC(N(c3ccc(C(F)(F)F)cc3)c3cncnc3)CC2)cc1` , is the recorded IC90 below the cut-off of 30 nM?
Found: y
